Data provenance: the supplement of paper PMC7125110

B1: glmS ribozyme (parent)
chain: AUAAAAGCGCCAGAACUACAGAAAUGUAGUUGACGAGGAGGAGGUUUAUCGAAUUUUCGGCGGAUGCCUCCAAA

Variants of: B1
measurement description: self-cleavage kobs at 640 uM GlcN6P; higher = faster cleavage; RNA array
test settings: with glucosamine-6-phosphate
Fewer inactive variants are shown than the library holds.
Each entry gets False if its self-cleavage kobs at 640 uM GlcN6P stays under 0.0002 s⁻¹, and True if its self-cleavage kobs at 640 uM GlcN6P is 0.0002 s⁻¹ or above.

[[record]]
mutant_designation = "G13U U30A A53G"
label_class = "False"

[[record]]
mutant_designation = "U54C U65C"
label_class = "True"

[[record]]
mutant_designation = "U31G U55C"
label_class = "True"

[[record]]
mutant_designation = "G7C C34A A42C C71U"
label_class = "False"

[[record]]
mutant_designation = "C8U C67A"
label_class = "False"

[[record]]
mutant_designation = "C50G G59U"
label_class = "True"

[[record]]
mutant_designation = "G40U U46C A53U"
label_class = "True"

[[record]]
mutant_designation = "U54A C67U"
label_class = "True"

[[record]]
mutant_designation = "A52G U55G"
label_class = "True"

[[record]]
mutant_designation = "A39C G66A"
label_class = "True"

[[record]]
mutant_designation = "A6U G29A G37A G38A A42C G43U G62U C70U"
label_class = "False"

[[record]]
mutant_designation = "G13U U65G"
label_class = "False"

[[record]]
mutant_designation = "A52U G62A"
label_class = "False"

[[record]]
mutant_designation = "A12U A14U U45A"
label_class = "True"

[[record]]
mutant_designation = "A12U A48U"
label_class = "True"

[[record]]
mutant_designation = "A33U G41U A52U"
label_class = "False"

[[record]]
mutant_designation = "U31C G32A"
label_class = "False"

[[record]]
mutant_designation = "G29C C68G"
label_class = "False"

[[record]]
mutant_designation = "A42U U69C"
label_class = "True"

[[record]]
mutant_designation = "C11A G51A"
label_class = "False"

[[record]]
mutant_designation = "U31C G63C"
label_class = "False"

[[record]]
mutant_designation = "G44U C67U"
label_class = "True"

[[record]]
mutant_designation = "U31A G59A"
label_class = "False"

[[record]]
mutant_designation = "C16A A36G"
label_class = "False"

[[record]]
mutant_designation = "G32C A52C"
label_class = "False"

[[record]]
mutant_designation = "G40A U45A"
label_class = "True"

[[record]]
mutant_designation = "C8G A52G"
label_class = "False"

[[record]]
mutant_designation = "G9U U45G C50G"
label_class = "False"

[[record]]
mutant_designation = "A6U U45A C50G U65G U69G"
label_class = "False"

[[record]]
mutant_designation = "G29U A48C G59A"
label_class = "False"

[[record]]
mutant_designation = "G51U G60C C70U"
label_class = "False"

[[record]]
mutant_designation = "G13A G43A"
label_class = "False"

[[record]]
mutant_designation = "G44A U46C C68A"
label_class = "False"

[[record]]
mutant_designation = "A14U U54C C67U"
label_class = "True"

[[record]]
mutant_designation = "G13U U31G A48G A52U"
label_class = "False"

[[record]]
mutant_designation = "G32U U55G U56A"
label_class = "False"

